Molecular target: Trp-p8 (Homo sapiens, UniProt Q7Z2W7, T58I)
Construct: expressed in transfected cells
Sequence (Q7Z2W7 whole entry T58I): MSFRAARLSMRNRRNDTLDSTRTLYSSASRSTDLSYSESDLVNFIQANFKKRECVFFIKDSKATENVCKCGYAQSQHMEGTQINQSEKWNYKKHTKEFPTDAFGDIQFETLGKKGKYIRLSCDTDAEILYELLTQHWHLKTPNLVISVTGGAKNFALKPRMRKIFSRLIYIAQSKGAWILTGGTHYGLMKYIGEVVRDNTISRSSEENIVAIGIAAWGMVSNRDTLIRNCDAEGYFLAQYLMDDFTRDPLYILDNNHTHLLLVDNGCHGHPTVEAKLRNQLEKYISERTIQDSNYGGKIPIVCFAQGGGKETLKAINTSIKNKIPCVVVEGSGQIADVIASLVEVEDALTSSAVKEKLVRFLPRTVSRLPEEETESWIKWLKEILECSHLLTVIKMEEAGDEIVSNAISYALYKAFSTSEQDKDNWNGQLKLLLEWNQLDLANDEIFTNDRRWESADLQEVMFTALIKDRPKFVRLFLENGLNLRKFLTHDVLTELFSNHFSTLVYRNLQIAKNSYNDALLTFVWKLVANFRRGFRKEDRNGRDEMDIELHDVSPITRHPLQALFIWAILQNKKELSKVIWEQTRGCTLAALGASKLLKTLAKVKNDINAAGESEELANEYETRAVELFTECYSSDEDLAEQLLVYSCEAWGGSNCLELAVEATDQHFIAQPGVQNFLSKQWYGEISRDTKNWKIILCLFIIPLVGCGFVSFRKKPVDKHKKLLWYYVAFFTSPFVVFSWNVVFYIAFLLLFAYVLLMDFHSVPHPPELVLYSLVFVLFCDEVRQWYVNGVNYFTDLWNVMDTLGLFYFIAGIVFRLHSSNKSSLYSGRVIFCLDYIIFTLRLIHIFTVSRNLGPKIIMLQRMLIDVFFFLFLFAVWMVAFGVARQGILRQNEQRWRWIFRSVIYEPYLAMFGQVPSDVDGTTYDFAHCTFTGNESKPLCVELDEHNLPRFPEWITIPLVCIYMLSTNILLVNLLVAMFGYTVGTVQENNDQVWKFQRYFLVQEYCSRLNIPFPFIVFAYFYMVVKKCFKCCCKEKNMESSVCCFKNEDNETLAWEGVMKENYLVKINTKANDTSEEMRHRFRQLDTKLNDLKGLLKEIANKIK
Test: Cell viability (ATP) assay for Trp-p8 antagonists: protection of CHO/Trp-p8 cells from toxic control agonist D-1607
Assay type: cell-based
Conditions: Table 2, Formula VIII antagonists; 10 μM compound plus toxic concentration of control agonist D-1607, CHO/Trp-p8 cells, 37° C.; ATP level relative to DMSO
Each record is given 1.0 if its reported Relative Viability (%) at 10 μM is strictly below 90%. Records at or above 90% are given 0.0.

Does the reported Relative Viability (%) at 10 μM of `CCCCOc1ccc(C(=O)N[C@@H]2C[C@H](C)CC[C@H]2C(C)C)cc1` stay below 90%?
0.0

How about `CC(C)[C@@H]1CC[C@@H](C)C[C@H]1C(=O)Nc1nnc(Sc2ccnc3cc(Cl)ccc23)s1` ?
1.0

How about `CC(C)[C@@H]1CC[C@@H](C)C[C@H]1NC(=O)SCc1ccccc1` ?
1.0

How about `Cc1ccc(O)c(CN[C@@H]2C[C@H](C)CC[C@H]2C(C)C)c1` ?
1.0

How about CC(C)[C@@H]1CC[C@@H](C)C[C@H]1OC(=O)N1c2ccccc2CC1C (stereo partly drawn) ?
0.0

More entries:
Does the reported Relative Viability (%) at 10 μM of CC(Oc1ccccc1)C(=O)N[C@@H]1C[C@H](C)CC[C@H]1C(C)C (stereo partly drawn) stay below 90%?
0.0

How about `CC(C)[C@@H]1CC[C@@H](C)C[C@H]1NC(=O)NCCC1=CCCCC1` ?
1.0

How about `CC(C)[C@@H]1CC[C@@H](C)C[C@H]1OCC(=O)NCCC1=CCCCC1` ?
0.0

How about `Cc1ccccc1CCNC(=O)CO[C@@H]1C[C@H](C)CC[C@H]1C(C)C` ?
0.0

How about `CC(C)[C@@H]1CC[C@@H](C)C[C@H]1OCC(=O)NCCc1cccs1` ?
0.0

How about `CC(C)[C@@H]1CC[C@@H](C)C[C@H]1NC(=O)[C@@H]1C[C@H]1c1ccccc1` ?
0.0

How about CC(NC(=O)CO[C@@H]1C[C@H](C)CC[C@H]1C(C)C)c1ccccc1 (stereo partly drawn) ?
0.0

How about `CC(C)[C@@H]1CC[C@@H](C)C[C@H]1NC(=O)NC1CCCCCC1` ?
1.0
